The entries below are paired with their reported selectivity ratio.
test: Selectivity index, ratio of IC50 for cytotoxicity against human HPL1D cells to IC50 for antimalarial activity against chloroquine resistant Plasmodium falciparum W2 infected in human erythrocytes; format: toxicity, cell-based; details: read-out: Ratio IC50
OBSERVABLE: selectivity ratio

> print(dat)
                                   compound  value
1  COc1ccc(NC(=O)C(c2ccc(C(F)(F)F)cc2)N2CCN(c3ncnc4sc5c(c34)CCCC5)CC2)cc1 (stereo not given)    716
2  COc1ccc(NC(=O)C(c2ccc(F)c(F)c2)N2CCN(c3ncnc4sc5c(c34)CCCC5)CC2)cc1 (stereo not given)    205
3  COc1ccc(NC(=O)C(c2ccc(Cl)c(Cl)c2)N2CCN(c3ncnc4sc5c(c34)CCCC5)CC2)cc1 (stereo not given)    460
4  COc1ccc(NC(=O)C(c2ccc(F)c(Cl)c2)N2CCN(c3ncnc4sc5c(c34)CCCC5)CC2)cc1 (stereo not given)    288
5  COc1ccc(NC(=O)C(c2ccc(OC(F)(F)F)cc2)N2CCN(c3ncnc4sc5c(c34)CCCC5)CC2)cc1 (stereo not given)    472
